Tested on: THP-1 viability, CellTiter-Glo luminescence, 72 h
METHOD_SUMMARY: PubChem AID 2252
MEASURED_QUANTITY: EC50

{"columns": ["COMPOUND", "EC50"],
 "data": [
  ["O=[N+]([O-])c1cc(F)c2cccnc2c1O", "22.9 µM"],
  ["COc1ccccc1Nc1nc(NCC2CCCO2)c2ccccc2n1 (stereo not drawn)", "14.1 µM"]
]}

For each of the compounds below, note its EC50.
1. COc1cc(CNc2ccc(N3CCN(C(C)=O)CC3)cc2)ccc1OCc1ccccc1
2. CC(C)(C)c1nc(SCC(=O)NCc2ccco2)c2ccccc2n1
3. CCOc1ccc(Nc2nc(N)c3ccccc3n2)cc1
4. CCCCOc1ccc(C(=O)NNC(=S)NC(=O)CC)cc1
5. O=c1c(O)cccc2cc(O)c(O)c(O)c12
6. COc1cc(/C=N/N=C(N)N)ccc1OCc1ccc(Cl)cc1
7. O=C(/C=C/c1ccccc1)c1cc(Br)ccc(=O)c1O
8. CC(=O)Oc1ccccc1C(=O)Nc1ncc([N+](=O)[O-])s1

Result:
6.5 µM
30 µM
6.96 µM
3.29 µM
24.2 µM
7.26 µM
10.5 µM
20.2 µM
